# test-system: SIRT1 (Homo sapiens)
# Sequence (Q96EB6 1-747): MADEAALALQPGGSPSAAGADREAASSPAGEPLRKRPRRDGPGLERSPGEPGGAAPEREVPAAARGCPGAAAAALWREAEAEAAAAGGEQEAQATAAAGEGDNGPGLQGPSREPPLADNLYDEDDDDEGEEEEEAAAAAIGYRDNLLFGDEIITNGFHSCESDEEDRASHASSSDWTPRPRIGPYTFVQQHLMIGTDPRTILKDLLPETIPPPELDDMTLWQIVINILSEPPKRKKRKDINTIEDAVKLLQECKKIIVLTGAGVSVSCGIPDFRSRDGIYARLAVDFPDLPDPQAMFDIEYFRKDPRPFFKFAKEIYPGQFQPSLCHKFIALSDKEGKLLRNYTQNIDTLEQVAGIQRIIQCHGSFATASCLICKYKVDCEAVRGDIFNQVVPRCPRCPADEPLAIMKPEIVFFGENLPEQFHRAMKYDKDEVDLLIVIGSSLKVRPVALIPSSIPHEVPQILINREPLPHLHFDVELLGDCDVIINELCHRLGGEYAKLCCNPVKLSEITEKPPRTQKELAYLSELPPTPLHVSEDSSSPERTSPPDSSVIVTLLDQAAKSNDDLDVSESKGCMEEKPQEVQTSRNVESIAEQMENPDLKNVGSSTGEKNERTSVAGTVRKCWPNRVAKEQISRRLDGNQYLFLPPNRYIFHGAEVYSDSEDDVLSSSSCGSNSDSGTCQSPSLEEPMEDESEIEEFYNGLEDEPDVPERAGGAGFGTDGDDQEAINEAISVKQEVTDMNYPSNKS
# method: Mass spectrometry based SIRT1 deacetylation (activation) assay
# Type: biochemical
# stated-conditions: 25 min, 0.5 μM peptide substrate, 120 μM βNAD+, 10 nM SIRT1, 25 min at 25° C., read-out: % Fold Act. (percent maximum fold activation)
measured-property: Emax

structure-smiles	result
CN(C)CCNc1cc(C(=O)Nc2ccccc2-c2nnc(C(N)=O)s2)nc(-c2ccccc2)n1	150 to 300%
CC(=O)c1ccccc1NC(=O)c1cc(N2CCOCC2)nc(-c2ccccc2)n1	150 to 300%
CC(C)C(=O)c1ccccc1NC(=O)c1cc(NCCN(C)C)nc(-c2ccccc2)n1	150 to 300%
